meta.source: ChEMBL document CHEMBL5143622

- System Under Test: Serine/threonine-protein kinase PAK 4 (Homo sapiens)
- Sequence (O96013 whole entry, looked up): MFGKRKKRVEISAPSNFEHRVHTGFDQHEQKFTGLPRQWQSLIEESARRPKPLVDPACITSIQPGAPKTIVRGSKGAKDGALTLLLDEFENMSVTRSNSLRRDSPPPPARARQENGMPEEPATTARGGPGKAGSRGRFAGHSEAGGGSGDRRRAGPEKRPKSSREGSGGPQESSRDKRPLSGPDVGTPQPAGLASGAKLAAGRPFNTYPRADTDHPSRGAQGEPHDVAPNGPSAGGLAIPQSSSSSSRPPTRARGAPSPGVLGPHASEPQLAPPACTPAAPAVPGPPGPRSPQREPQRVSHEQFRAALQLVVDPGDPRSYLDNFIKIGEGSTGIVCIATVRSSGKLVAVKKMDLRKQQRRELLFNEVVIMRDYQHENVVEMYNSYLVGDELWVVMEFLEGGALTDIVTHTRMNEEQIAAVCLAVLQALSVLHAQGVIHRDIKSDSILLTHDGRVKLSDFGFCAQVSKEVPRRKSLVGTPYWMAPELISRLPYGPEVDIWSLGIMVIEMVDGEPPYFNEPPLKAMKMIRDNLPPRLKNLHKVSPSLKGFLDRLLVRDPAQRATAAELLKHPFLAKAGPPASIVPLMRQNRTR
- Assay Method Text: Inhibition of human PAK4 assessed as enzymatic activity at 2 uM incubated for 20 mins by filter binding method relative to control
// label = 1.0 if inhibition is not less than 50%, otherwise 0.0

> print(dat)
                                   compound  category.label
1  NCC1CCCN(c2nc(Nc3cccc(Cl)c3)nc3[nH]ccc23)C1 (configuration not stated)             1.0
2  N[C@H]1CCCN(c2nc(Nc3cccc(Cl)c3)nc3[nH]ccc23)C1             0.0
3   Fc1cccc(Nc2nc(NC3CCNCC3)c3cc[nH]c3n2)c1             0.0
4     c1ccc(Nc2nc(N3CCOCC3)c3cc[nH]c3n2)cc1             1.0
5    c1ccc(Nc2nc(NC3CCNCC3)c3cc[nH]c3n2)cc1             1.0
6  COc1cccc(Nc2nc(NC3CCNCC3)c3cc[nH]c3n2)c1             0.0

Could you verify whether the entry OCC(O)CNc1nc(Nc2ccccc2)nc2[nH]ccc12 (configuration not stated) shows inhibition of no less than 50%?
1.0

Could you verify whether the entry OCCNc1nc(Nc2ccccc2)nc2[nH]ccc12 shows inhibition of no less than 50%?
1.0

Could you verify whether the entry N[C@@H]1CCCN(c2nc(Nc3cccc(Cl)c3)nc3[nH]ccc23)C1 shows inhibition of no less than 50%?
1.0

Could you verify whether the entry Clc1cccc(Nc2nc(NCC3CCNCC3)c3cc[nH]c3n2)c1 shows inhibition of no less than 50%?
0.0

Could you verify whether the entry CC1(N)CCN(c2nc(Nc3cccc(Cl)c3)nc3[nH]ccc23)CC1 shows inhibition of no less than 50%?
0.0

Could you verify whether the entry c1ccc(Nc2nc(N3CCNCC3)c3cc[nH]c3n2)cc1 shows inhibition of no less than 50%?
1.0

###

- Assay Method Text: Cytotoxicity against HEK293T cells assessed as cell growth inhibition incubated for 72 hrs by cell titre glo luminescence assay
- Assay type: toxicity, cell-based, HEK-293T
- Assay Setup: human
Attribute Measured: IC50 at 72 h (µM)
Please give a number only; it is taken to be in µM.

// N[C@H]1CC[C@H](Nc2nc(Nc3cccc(Cl)c3)nc3[nH]ccc23)CC1 : IC50 at 72 h value = 7.39
